Can you tell me logP for the items I'm about to list?
Experiment: Partition coefficient (logP)
Type: physicochemical
Conditions: octanol/water
Give bare numbers.

{"chemical_structure": "O=C(O)C[C@H](NC(=O)CN1CC[C@H](CCc2ccc3c(n2)NCCC3)C1=O)c1ccc2c(c1)OC(F)(F)O2", "logP": 1.44}

Proceeding to the next molecule to report its logP.
## Input Query (molecule): "O=C(O)C[C@H](NC(=O)CN1CC[C@H](CCc2ccc3c(n2)NCCC3)C1=O)c1ccc2c(c1)OCO2" ; field requested: logP
## Output 0.26

---

Can you tell me inhibition for the items I'm about to list?
Molecular target: Integrin alpha-IIb/beta-3 (Homo sapiens) (UniProt P05106+P08514)
Test: Inhibition of ADP-stimulated alphaIIb-beta3 integrin mediated human platelet aggregation at 10 uM
Give bare numbers, in %.

{"chemical_structure": "CCOc1ccc([C@H](CC(=O)O)NC(=O)CN2CC[C@H](CCc3ccc4c(n3)NCCC4)C2=O)cc1F", "result_value": 28}
{"chemical_structure": "O=C(O)C[C@H](NC(=O)CN1CC[C@H](CCc2ccc3c(n2)NCCC3)C1=O)c1cccc(F)c1", "result_value": 6}
{"chemical_structure": "O=C(O)C[C@H](NC(=O)CN1CC[C@H](CCc2ccc3c(n2)NCCC3)C1=O)c1ccc(-c2ccccc2)c(F)c1", "result_value": 3}
{"chemical_structure": "O=C(O)C[C@H](NC(=O)CN1CC[C@H](CCc2ccc3c(n2)NCCC3)C1=O)c1ccc2ccsc2c1", "result_value": 29}
{"chemical_structure": "O=C(O)C[C@H](NC(=O)CN1CC[C@H](CCc2ccc3c(n2)NCCC3)C1=O)c1ccccc1", "result_value": 8}
{"chemical_structure": "O=C(O)C[C@H](NC(=O)CN1CC[C@H](CCc2ccc3c(n2)NCCC3)C1=O)c1ccc2ncsc2c1", "result_value": 19}

## Input Query (compound): "COc1ccc([C@H](CC(=O)O)NC(=O)CN2CC[C@H](CCc3ccc4c(n3)NCCC4)C2=O)cc1F" ; field requested: inhibition
## Output 30

---

Target: Integrin alpha-IIb/beta-3 (Homo sapiens) (UniProt P05106+P08514)
Test: Inhibition of ADP-stimulated alphaIIb-beta3 integrin mediated human platelet aggregation at 10 uM
assay_metric: inhibition (%)
Numbers only, in %.

{"chemical_structure": "O=C(O)C[C@H](NC(=O)CN1CC[C@H](CCc2ccc3c(n2)NCCC3)C1=O)c1ccc2c(c1)OC(F)(F)O2", "inhibition (%)": 3}
{"chemical_structure": "O=C(O)C[C@H](NC(=O)CN1CC[C@H](CCc2ccc3c(n2)NCCC3)C1=O)c1ccc2c(c1)OCC2", "inhibition (%)": 60}
{"chemical_structure": "O=C(O)C[C@H](NC(=O)CN1CC[C@H](CCc2ccc3c(n2)NCCC3)C1=O)c1ccc2nc(O)oc2c1", "inhibition (%)": 19}

Proceeding to the next molecule to report its inhibition.
## Input # query: inhibition | item "O=C(O)C[C@H](NC(=O)CN1CC[C@H](CCc2ccc3c(n2)NCCC3)C1=O)c1ccc2c(c1)CCO2" | system: Integrin alpha-IIb/beta-3 (Homo sapiens) (UniProt P05106+P08514)
## Output 20

---

Biological target: Integrin alpha-V/beta-3 (Homo sapiens, UniProt P05106+P06756)
Sequence (P05106 27-788 limits assumed): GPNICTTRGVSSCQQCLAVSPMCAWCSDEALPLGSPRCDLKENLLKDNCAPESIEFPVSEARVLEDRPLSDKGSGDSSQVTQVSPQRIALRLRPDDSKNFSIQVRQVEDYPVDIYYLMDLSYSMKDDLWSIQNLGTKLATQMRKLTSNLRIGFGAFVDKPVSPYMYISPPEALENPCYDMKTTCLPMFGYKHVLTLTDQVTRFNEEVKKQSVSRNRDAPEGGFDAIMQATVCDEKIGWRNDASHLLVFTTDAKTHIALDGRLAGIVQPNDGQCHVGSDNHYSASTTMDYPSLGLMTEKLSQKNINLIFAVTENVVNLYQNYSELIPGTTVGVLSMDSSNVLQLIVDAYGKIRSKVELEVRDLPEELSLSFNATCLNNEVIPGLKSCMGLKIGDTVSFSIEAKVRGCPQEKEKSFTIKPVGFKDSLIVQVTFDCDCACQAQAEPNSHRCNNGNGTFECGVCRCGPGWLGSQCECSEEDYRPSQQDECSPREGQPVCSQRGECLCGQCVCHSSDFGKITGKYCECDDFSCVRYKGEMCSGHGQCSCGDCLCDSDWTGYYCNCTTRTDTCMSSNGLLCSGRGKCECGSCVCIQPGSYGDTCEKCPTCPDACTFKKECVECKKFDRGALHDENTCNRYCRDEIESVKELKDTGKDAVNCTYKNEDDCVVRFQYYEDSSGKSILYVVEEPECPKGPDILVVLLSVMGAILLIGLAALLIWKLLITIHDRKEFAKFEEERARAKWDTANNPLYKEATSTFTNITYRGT
Sequence (P06756 31-889 limits assumed): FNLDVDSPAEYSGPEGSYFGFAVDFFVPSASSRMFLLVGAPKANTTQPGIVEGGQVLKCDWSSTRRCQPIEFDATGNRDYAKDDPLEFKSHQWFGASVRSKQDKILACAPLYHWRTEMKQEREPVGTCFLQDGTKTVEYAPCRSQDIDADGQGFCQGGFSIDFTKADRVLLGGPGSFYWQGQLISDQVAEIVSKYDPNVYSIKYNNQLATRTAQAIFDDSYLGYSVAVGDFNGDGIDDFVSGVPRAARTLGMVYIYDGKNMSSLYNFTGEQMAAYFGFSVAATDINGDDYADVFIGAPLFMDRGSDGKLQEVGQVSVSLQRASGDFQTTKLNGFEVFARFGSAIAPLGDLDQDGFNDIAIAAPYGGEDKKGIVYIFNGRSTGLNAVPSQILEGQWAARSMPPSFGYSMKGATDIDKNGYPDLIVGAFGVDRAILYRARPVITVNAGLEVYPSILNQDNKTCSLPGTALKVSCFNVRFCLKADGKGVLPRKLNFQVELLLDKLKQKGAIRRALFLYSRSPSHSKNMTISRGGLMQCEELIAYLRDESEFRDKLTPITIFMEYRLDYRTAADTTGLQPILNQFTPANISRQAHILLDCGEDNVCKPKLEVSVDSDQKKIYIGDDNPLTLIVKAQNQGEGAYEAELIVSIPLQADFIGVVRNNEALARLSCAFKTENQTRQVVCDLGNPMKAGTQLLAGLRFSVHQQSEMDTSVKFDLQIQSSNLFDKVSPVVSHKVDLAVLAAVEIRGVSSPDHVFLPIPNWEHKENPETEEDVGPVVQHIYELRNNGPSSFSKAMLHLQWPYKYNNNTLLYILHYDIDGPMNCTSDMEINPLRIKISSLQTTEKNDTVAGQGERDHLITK
Sequence (P06756 891-1048 limits assumed): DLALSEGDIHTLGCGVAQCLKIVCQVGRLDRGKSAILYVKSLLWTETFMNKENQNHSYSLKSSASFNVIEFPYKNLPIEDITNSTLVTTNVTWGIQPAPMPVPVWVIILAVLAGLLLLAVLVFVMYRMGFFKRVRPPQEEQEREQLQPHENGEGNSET
Test: Inhibition of high affinity radioligand binding to human alphaV-beta3 integrin
Can you tell me pIC50 for the items I'm about to list?
Numbers only, as −log10 of the molar value.

Consider the reported pIC50 for these compounds:
{"chemical_structure": "COc1ccc([C@H](CC(=O)O)NC(=O)CN2CC[C@H](CCc3ccc4c(n3)NCCC4)C2=O)cc1F", "pIC50": 9.31}
{"chemical_structure": "CCOc1ccc([C@H](CC(=O)O)NC(=O)CN2CC[C@H](CCc3ccc4c(n3)NCCC4)C2=O)cc1F", "pIC50": 9.51}
{"chemical_structure": "O=C(O)C[C@H](NC(=O)CN1CC[C@H](CCc2ccc3c(n2)NCCC3)C1=O)c1ccc2c(c1)CCC2", "pIC50": 7.54}
{"chemical_structure": "O=C(O)C[C@H](NC(=O)CN1CC[C@H](CCc2ccc3c(n2)NCCC3)C1=O)c1cccc(F)c1", "pIC50": 8.74}

State the recorded pIC50 for every item in the following list.
1. O=C(O)C[C@H](NC(=O)CN1CC[C@H](CCc2ccc3c(n2)NCCC3)C1=O)c1cccnc1
2. O=C(O)C[C@H](NC(=O)CN1CC[C@H](CCc2ccc3c(n2)NCCC3)C1=O)c1ccc2ccsc2c1
3. O=C(O)C[C@H](NC(=O)CN1CC[C@H](CCc2ccc3c(n2)NCCC3)C1=O)c1ccccc1
4. O=C(O)C[C@H](NC(=O)CN1CC[C@H](CCc2ccc3c(n2)NCCC3)C1=O)c1cnc2ccccc2c1
5. O=C(O)C[C@H](NC(=O)CN1CC[C@H](CCc2ccc3c(n2)NCCC3)C1=O)c1ccc2ncsc2c1

## Output
1. 9.46
2. 8.66
3. 8.40
4. 10.40
5. 8.43

State the recorded pIC50 for every item in the following list.
1. O=C(O)C[C@H](NC(=O)CN1CC[C@H](CCc2ccc3c(n2)NCCC3)C1=O)c1ccc2c(c1)OC(F)(F)O2
2. O=C(O)CCNC(=O)CN1CC[C@H](CCc2ccc3c(n2)NCCC3)C1=O
3. O=C(O)C[C@H](NC(=O)CN1CC[C@H](CCc2ccc3c(n2)NCCC3)C1=O)c1ccc2[nH]c(=O)oc2c1
4. O=C(O)C[C@H](NC(=O)CN1CC[C@H](CCc2ccc3c(n2)NCCC3)C1=O)c1ccc2c(c1)OCC2
5. O=C(O)C[C@H](NC(=O)CN1CC[C@H](CCc2ccc3c(n2)NCCC3)C1=O)c1ccc2c(c1)OCO2
6. O=C(O)C[C@H](NC(=O)CN1CC[C@H](CCc2ccc3c(n2)NCCC3)C1=O)c1ccc(-c2ccccc2)c(F)c1
7. O=C(O)C[C@H](NC(=O)CN1CC[C@H](CCc2ccc3c(n2)NCCC3)C1=O)c1ccc2c(c1)CCO2

## Output
8.24
6.64
9.54
9.96
9.49
9.24
8.96
